From: patent US20220281821A1

Assignment: determine reported pIC50 for the given compounds.
# target-or-system: BaF3-CD74-NTRK1 (Homo sapiens, UniProt P04629)
# Construct: fused on or other part: P04233 (HLA class II histocompatibility antigen gamma chain)
# Sequence (P04629 510-796 limits assumed): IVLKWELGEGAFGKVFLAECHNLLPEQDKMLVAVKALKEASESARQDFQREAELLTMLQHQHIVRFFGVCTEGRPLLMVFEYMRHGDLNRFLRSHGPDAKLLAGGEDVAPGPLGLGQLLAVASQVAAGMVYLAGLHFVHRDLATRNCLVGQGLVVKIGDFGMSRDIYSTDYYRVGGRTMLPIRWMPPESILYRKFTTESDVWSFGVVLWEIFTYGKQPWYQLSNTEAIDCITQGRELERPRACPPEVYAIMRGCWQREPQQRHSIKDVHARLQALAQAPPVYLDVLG
# test-details: Cell proliferation inhibition (CCK-8), BaF3-CD74-NTRK1 stable strain
# condition-label: BaF3-CD74-NTRK1, 72 hours
Interpret pIC50 as the negative base-10 log of the concentration measured in mol/L.

Please report the measured pIC50 for Fc1ccc(CNc2ccc3[nH]nc(/C=C/c4ccccn4)c3c2)cc1 [DYX-417]
6.80

Please report the measured pIC50 for C(=C\c1n[nH]c2ccc(NCc3ccccc3)cc12)/c1ccccn1 [DYX-314]
6.81

Please report the measured pIC50 for C[C@@H](Nc1ccc2[nH]nc(/C=C/c3cnccn3)c2c1)c1cc(F)cc(F)c1 [DYX-411]
7.45

Please report the measured pIC50 for CCNC(=O)/C=C/c1n[nH]c2ccc(NCc3cc(F)cc(F)c3)cc12 [DYX-236]
6.95

Please report the measured pIC50 for Fc1cc(F)cc(Cc2ccc3[nH]nc(/C=C/c4cccs4)c3c2)c1 [DYX-04]
6.76

Please report the measured pIC50 for Fc1ccc(F)c([C@H]2CCCN2c2ccc3[nH]nc(/C=C/c4ccccn4)c3c2)c1 [DYX-170]
7.00

Please report the measured pIC50 for N#CCn1cc(/C=C/c2n[nH]c3ccc(NS(=O)(=O)c4cc(F)cc(F)c4)cc23)cn1 [CHW-1]
7.45

Please report the measured pIC50 for Fc1cc(F)cc(Cc2ccc3[nH]nc(/C=C/c4ccccc4)c3c2)c1 [DYX-07]
6.68
